System: Pseudomonas aeruginosa
ASSAY NOTES: In vitro antibacterial activity against Pseudomonas aeruginosa IFO 3445
Format: functional
ENDPOINT LABEL: MIC (µg/mL)

Reference set (2 entries):
Nc1c(F)c(N2CCNC(CF)C2)c(F)c2c1c(=O)c(C(=O)O)cn2C1CC1 (stereo not given)	0.39
CC1CN(c2c(F)c(Cl)c3c(=O)c(C(=O)O)cn(C4CC4)c3c2F)CCN1 (stereo not given)	0.78

1. CN1CCN(c2c(F)c(N)c3c(=O)c(C(=O)O)cn(C4CC4)c3c2F)CC1
2. C[C@@H]1CN(c2c(F)cc3c(=O)c(C(=O)O)cn(C4CC4)c3c2F)C[C@H](C)N1
3. CN1CCN(c2c(F)cc3c(=O)c(C(=O)O)cn(C4CC4)c3c2F)CC1
Please put the entries in order of rising MIC. Arrange the labels as the request states and list them.
2, 3, 1
(2: 0.39 µg/mL, 3: 0.78 µg/mL, 1: 1.56 µg/mL)

---

System: Pseudomonas aeruginosa
ASSAY NOTES: In vitro antibacterial activity against Pseudomonas aeruginosa IFO 3445
Format: functional
ENDPOINT LABEL: MIC (µg/mL)

CC1CN(c2c(F)c(O)c3c(=O)c(C(=O)O)cn(C4CC4)c3c2F)CCN1 (centres undefined)	0.78
CC1COc2c(N3CCN(C)CC3)c(F)cc3c(=O)c(C(=O)O)cn1c23 (centres undefined)	1.56
O=C(O)c1cn(C2CC2)c2cc(N3CCNCC3)c(F)cc2c1=O	0.2
C[C@@H]1CN(c2c(F)c(N)c3c(=O)c(C(=O)O)cn(C4CC4)c3c2F)C[C@@H](C)N1 (relative stereo)	0.78

---

System: Moraxella bovis
ASSAY NOTES: In vitro antibacterial activity against glucose nonfermenter Moraxella bovis P-7101
Assay type: functional
ENDPOINT LABEL: MIC (µg/mL)

Look over these answered cases.
CC1COc2c(N3CCN(C)CC3)c(F)cc3c(=O)c(C(=O)O)cn1c23 (configuration not stated)	1.56
CC1CN(c2c(F)c(Cl)c3c(=O)c(C(=O)O)cn(C4CC4)c3c2F)CCN1 (configuration not stated)	1.56
O=C(O)c1cn(C2CC2)c2cc(N3CCNCC3)c(F)cc2c1=O	3.13
O=C(O)c1cn(C2CC2)c2c(F)c(N3CCNCC3)c(F)cc2c1=O	0.39
CC1CN(c2c(F)c(N)c3c(=O)c(C(=O)O)cn(C4CC4)c3c2F)CCN1 (configuration not stated)	0.39

1. C[C@H]1CN(c2c(F)c(N)c3c(=O)c(C(=O)O)cn(C4CC4)c3c2F)CCN1
2. CC1CN(c2c(F)c(O)c3c(=O)c(C(=O)O)cn(C4CC4)c3c2F)CCN1 (configuration not stated)
Could you check which of 1 and 2 has a smaller value for MIC? // respond with label for picked entry
1

I. C[C@@H]1CN(c2c(F)c(N)c3c(=O)c(C(=O)O)cn(C4CC4)c3c2F)C[C@H](C)N1C
II. Nc1c(F)c(N2CCNC(CF)C2)c(F)c2c1c(=O)c(C(=O)O)cn2C1CC1 (configuration not stated)
III. CC1CN(c2c(F)c(F)c3c(=O)c(C(=O)O)cn(C4CC4)c3c2F)CCN1 (configuration not stated)
Ordering criterion: MIC; begin with the maximum. Please respond with the labels ordered as the question requires.
III, I, II
(III: 1.56 µg/mL, I: 0.78 µg/mL, II: 0.39 µg/mL)

A. CN1CCN(c2c(F)cc3c(=O)c(C(=O)O)cn(C4CC4)c3c2F)CC1
B. C[C@@H]1CN(c2c(F)c(N)c3c(=O)c(C(=O)O)cn(C4CC4)c3c2F)C[C@H](C)N1
I would appreciate it if you could say which entry, A or B , has the lower MIC value. Your answer should be the label attached to the chosen record.
B
(B: 0.39 µg/mL, A: 0.78 µg/mL)

I. C[C@@H]1CN(c2c(F)cc3c(=O)c(C(=O)O)cn(C4CC4)c3c2F)C[C@H](C)N1
II. CN1CCN(c2c(F)c(N)c3c(=O)c(C(=O)O)cn(C4CC4)c3c2F)CC1
Could you please tell me which of these two has the higher MIC: I or II ? Provide the label of your selected option as the answer.
I
